# Subject of test: VIM-2 (Escherichia coli)
# Assay notes: MBL inhibition, FC-5 fluorescence assay, VIM-2
# Assay type: biochemical
# Condition parameters: FC-5 cephalosporin substrate, ranges of obtained pIC50, read-out: pIC50 VIM-2 (converted)
Assay metric: IC50

Compound: C[C@@H](c1cccc2c(-c3ccc(NS(C)(=O)=O)c(F)c3)c(C(=O)O)[nH]c12)N1C[C@]2(C[C@@H](CN)C2)OC1=O [IC-14]
Value reported: 0.1 to 1 nM
//
Compound: CC(c1cccc2c(-c3ccc(CS(C)(=O)=O)c(F)c3)c(C(=O)O)[nH]c12)N1CC(CCCN)OC1=O (single isomer, unassigned) [IC-83]
Value reported: 1 to 10 nM
//
Compound: C[C@@H](c1cccc2c(-c3ccc(CS(C)(=O)=O)c(F)c3)c(C(=O)O)[nH]c12)n1cc(CCC2(N)CC2)oc1=O [IC-69]
Value reported: 0.1 to 1 nM
//
Compound: CC(NC(=O)[C@H]1CC[C@H](CN)CC1)c1cccc2c(-c3ccc(CS(C)(=O)=O)c(F)c3)c(C(=O)O)[nH]c12 (mixture of isomers) [IC-99]
Value reported: < 0.1 nM
//
Compound: C[C@@H](OCc1ccc(CN)cc1)c1cccc2c(-c3ccc(CS(C)(=O)=O)c(Cl)c3)c(C(=O)O)[nH]c12 (single isomer, unassigned) [IC-88]
Value reported: > 10 nM

Attribution: patent US20240246913A1
